Every entry's value here was drawn from patent US9902696B2.

- TARGET_OR_SYSTEM: recombinant human baculovirus-expressed GST-tagged FASN (Homo sapiens, UniProt P49327)
- Construct: GST
- Sequence (P49327 whole entry): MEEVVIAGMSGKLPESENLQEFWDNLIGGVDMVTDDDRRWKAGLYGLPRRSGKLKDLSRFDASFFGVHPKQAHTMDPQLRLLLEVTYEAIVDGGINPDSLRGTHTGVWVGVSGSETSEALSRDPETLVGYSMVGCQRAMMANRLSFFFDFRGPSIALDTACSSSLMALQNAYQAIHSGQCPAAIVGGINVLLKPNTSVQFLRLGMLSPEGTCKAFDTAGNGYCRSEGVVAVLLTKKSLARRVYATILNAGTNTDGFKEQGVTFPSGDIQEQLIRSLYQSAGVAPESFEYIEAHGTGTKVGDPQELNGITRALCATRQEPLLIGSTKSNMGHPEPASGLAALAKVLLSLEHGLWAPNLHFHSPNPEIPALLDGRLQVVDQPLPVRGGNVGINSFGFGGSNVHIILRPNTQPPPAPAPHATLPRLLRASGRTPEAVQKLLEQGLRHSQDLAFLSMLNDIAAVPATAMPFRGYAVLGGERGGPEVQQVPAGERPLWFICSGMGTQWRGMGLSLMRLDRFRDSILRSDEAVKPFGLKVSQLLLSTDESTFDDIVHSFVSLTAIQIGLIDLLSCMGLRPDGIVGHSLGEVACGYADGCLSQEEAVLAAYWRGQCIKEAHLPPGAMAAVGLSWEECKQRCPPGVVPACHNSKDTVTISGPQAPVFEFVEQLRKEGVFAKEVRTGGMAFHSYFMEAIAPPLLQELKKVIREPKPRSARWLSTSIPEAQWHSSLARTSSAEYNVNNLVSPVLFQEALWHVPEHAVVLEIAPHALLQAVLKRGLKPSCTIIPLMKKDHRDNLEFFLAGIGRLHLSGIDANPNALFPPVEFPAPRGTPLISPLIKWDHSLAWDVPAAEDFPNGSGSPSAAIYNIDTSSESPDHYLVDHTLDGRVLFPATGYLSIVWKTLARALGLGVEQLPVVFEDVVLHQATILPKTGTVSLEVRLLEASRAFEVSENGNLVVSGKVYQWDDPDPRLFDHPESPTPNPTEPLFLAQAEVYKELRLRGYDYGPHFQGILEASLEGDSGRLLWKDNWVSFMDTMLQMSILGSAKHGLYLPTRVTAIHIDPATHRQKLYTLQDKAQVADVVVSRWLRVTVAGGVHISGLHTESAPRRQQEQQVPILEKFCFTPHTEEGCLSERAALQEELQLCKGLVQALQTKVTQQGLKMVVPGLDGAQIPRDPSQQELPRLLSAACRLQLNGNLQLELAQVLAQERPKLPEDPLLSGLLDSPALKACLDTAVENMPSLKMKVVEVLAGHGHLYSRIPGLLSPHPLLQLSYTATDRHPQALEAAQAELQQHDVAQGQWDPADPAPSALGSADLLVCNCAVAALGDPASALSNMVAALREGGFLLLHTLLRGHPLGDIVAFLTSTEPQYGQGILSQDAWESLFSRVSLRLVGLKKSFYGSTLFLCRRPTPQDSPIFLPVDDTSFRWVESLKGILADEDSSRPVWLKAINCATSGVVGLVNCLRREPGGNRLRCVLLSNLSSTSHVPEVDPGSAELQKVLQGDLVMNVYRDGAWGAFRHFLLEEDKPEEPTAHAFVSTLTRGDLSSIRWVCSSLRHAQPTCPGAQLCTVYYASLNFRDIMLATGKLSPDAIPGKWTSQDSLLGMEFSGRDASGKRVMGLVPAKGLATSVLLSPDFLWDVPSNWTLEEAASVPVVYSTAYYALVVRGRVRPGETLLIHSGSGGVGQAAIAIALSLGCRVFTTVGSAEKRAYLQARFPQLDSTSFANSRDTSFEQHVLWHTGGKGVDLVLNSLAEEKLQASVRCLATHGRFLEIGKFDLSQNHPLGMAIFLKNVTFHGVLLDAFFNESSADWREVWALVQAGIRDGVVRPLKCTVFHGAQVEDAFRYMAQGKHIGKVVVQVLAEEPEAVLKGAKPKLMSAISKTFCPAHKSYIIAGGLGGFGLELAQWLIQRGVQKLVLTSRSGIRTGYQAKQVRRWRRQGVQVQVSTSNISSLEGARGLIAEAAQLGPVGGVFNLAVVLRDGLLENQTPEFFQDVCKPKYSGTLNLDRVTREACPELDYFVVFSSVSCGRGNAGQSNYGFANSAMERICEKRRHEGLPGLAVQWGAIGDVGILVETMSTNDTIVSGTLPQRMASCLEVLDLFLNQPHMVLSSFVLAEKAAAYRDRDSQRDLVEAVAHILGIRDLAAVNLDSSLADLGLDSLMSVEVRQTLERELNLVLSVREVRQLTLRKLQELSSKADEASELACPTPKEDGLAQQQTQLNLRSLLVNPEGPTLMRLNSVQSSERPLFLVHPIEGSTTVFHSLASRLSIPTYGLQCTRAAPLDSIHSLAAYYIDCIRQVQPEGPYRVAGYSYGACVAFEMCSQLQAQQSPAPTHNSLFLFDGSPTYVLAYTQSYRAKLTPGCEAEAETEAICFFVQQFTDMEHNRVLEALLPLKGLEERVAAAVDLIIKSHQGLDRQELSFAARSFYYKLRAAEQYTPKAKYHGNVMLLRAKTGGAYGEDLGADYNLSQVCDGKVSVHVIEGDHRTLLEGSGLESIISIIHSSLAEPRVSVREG
- EXPERIMENT: FASN enzyme activity assay, fluorescence-based detection of CoA with CPM
- Format: biochemical
- CONDITION: 5 nM FASN, 150 μM NADPH, 10 μM acetyl-CoA, 25 μM malonyl-CoA, 90 minutes incubation; read-out: IC50 data for Compounds of Formulae I-V/V(a): Activity
- Source text: FASN Enzyme activity may be determined by detecting coenzyme A (CoA), a product of FASN-catalyzed synthesis of palmitate from acetyl-CoA and malonyl-CoA with NADPH as a cofactor. The assay is fluorescence-based and measures the interaction of free CoA with 7-diethylamino-3-(4′-malemimidylphenyl)-4-methylcoumarin (CPM; Life Technologies, CA) as described in Chung et al (2008). […]
Structures can show the parent of a compound that is named as a salt.
Recorded measurements of IC50, one per entry

Could you share which IC50 value was measured for O=C(C1CCC1)N1CCC(Oc2ccc(-c3ccc(Nc4ccccc4)nc3)cc2)CC1 [Example 394, TFA salt] ?
1000 to 10000 nM

Could you share which IC50 value was measured for Cc1cc(-c2ccc(OC3CCN(C(=O)[C@H]4CCCO4)CC3)cc2)cn2ccnc12 ?
1 to 99 nM

Could you share which IC50 value was measured for Cc1c(-c2ccc(OC3CCN(C(=O)C4CC(F)(F)CO4)CC3)cc2)ccc2cccnc12 (stereo not drawn) [Example 164, HCl] ?
100 to 999 nM

Could you share which IC50 value was measured for CCC(=O)N1CCC(Oc2ccc(-c3ccc4cncn4c3)cc2)CC1 ?
1000 to 10000 nM

Could you share which IC50 value was measured for CONC(=O)N1CCC(Oc2ccc(-c3cnc4ccccc4c3C)cc2)CC1 ?
1 to 99 nM

Could you share which IC50 value was measured for CCC(=O)N1CCC(Oc2ccc(-c3ccc4cccnc4c3)cn2)CC1 [Example 135, HCl] ?
100 to 999 nM

Could you share which IC50 value was measured for Cc1cc(-c2ccc(OC3CCN(C(=O)C4CC4)CC3)cc2)cc2ncccc12 [Example 347, HCl] ?
100 to 999 nM

Could you share which IC50 value was measured for CCC(=O)N1CCC(Oc2ccc(-c3ccc4cccnc4c3O)cc2)CC1 [Example 188, HCl] ?
100 to 999 nM

Below: the item to evaluate.
Could you share which IC50 value was measured for Cc1c(-c2ccc(OC3CCN(C(=O)N4CCCO4)CC3)cc2)ccc2cccnc12 ?
1 to 99 nM

---

- TARGET_OR_SYSTEM: recombinant human baculovirus-expressed GST-tagged FASN (Homo sapiens)
- Construct: GST
- EXPERIMENT: FASN enzyme activity assay, fluorescence-based detection of CoA with CPM
- Type: biochemical
- CONDITION: 5 nM FASN, 150 μM NADPH, 10 μM acetyl-CoA, 25 μM malonyl-CoA, 90 minutes incubation; read-out: IC50 data for Compounds of Formulae I-V/V(a): Activity
Structures can show the parent of a compound that is named as a salt.
Recorded measurements of IC50, one per entry

A selection of reference data follows.
Lab request: please report IC50 under test system recombinant human baculovirus-expressed GST-tagged FASN (Homo sapiens) for Cc1c(-c2ccc(OC3CCN(C(=O)NO)CC3)cc2)cnc2ccccc12
1000 to 10000 nM

Lab request: please report IC50 under test system recombinant human baculovirus-expressed GST-tagged FASN (Homo sapiens) for CCC(=O)N1CCC(Oc2ccc(-c3ccc4cccnc4c3OCCN3CCCC3)cc2)CC1 [Example 173, HCl]
1000 to 10000 nM

Others:
Lab request: please report IC50 under test system recombinant human baculovirus-expressed GST-tagged FASN (Homo sapiens) for O=C(C1CC1)N1CCC(Oc2ccc(-c3ccc4c(Cl)ccnc4c3)cc2)CC1 [Example 258, TFA salt]
100 to 999 nM

Lab request: please report IC50 under test system recombinant human baculovirus-expressed GST-tagged FASN (Homo sapiens) for CCC(=O)N1CCC(Oc2ccc(-c3ccc(Oc4ccccc4)cc3)cc2)CC1
1000 to 10000 nM

Lab request: please report IC50 under test system recombinant human baculovirus-expressed GST-tagged FASN (Homo sapiens) for CCC(=O)N1CCC(Oc2ccc(-c3cnc4ccccc4n3)cc2)CC1
100 to 999 nM

Lab request: please report IC50 under test system recombinant human baculovirus-expressed GST-tagged FASN (Homo sapiens) for Cc1c(-c2ccc(O[C@H]3C[C@H]4CC[C@@H](C3)N4C(=O)[C@H]3CCCO3)cc2)ccc2cccnc12 [Example 371, HCl]
1 to 99 nM

Lab request: please report IC50 under test system recombinant human baculovirus-expressed GST-tagged FASN (Homo sapiens) for CCC(=O)N1CCC(Oc2ccc(-c3cnc4cc(C)ccc4c3)cc2)CC1
100 to 999 nM

Lab request: please report IC50 under test system recombinant human baculovirus-expressed GST-tagged FASN (Homo sapiens) for COc1c(-c2ccc(OC3CCN(C(=O)C4CC4)CC3)c(F)c2)ccc2cccnc12
1 to 99 nM

---

Recorded measurements of IC50, one per entry
- TARGET_OR_SYSTEM: recombinant human baculovirus-expressed GST-tagged FASN (Homo sapiens, UniProt P49327)
- Construct: GST
- EXPERIMENT: FASN enzyme activity assay, fluorescence-based detection of CoA with CPM
- Type: biochemical
- CONDITION: 5 nM FASN, 150 μM NADPH, 10 μM acetyl-CoA, 25 μM malonyl-CoA, 90 minutes incubation; read-out: IC50 data for Compounds of Formulae I-V/V(a): Activity
Where a name gives a salt, the structure may show the parent alone.

Could you share which IC50 value was measured for Cc1c(-c2ccc(OC3CCN(C(=O)C4CC4)CC3C)cc2)ccc2cccnc12 (stereo not drawn) [Example 376, TFA salt] ?
0.001 to 0.099 µM

Could you share which IC50 value was measured for CCOC(=O)N1CCC(Oc2ccc(-c3ccc4cccnc4c3C)cc2)CC1 [Example 90] ?
0.1 to 0.999 µM

Could you share which IC50 value was measured for Cc1c(-c2ccc(OC3CCN(C(=O)C4(O)CC4)CC3)cc2)ccc2nccn12 [Example 309] ?
0.001 to 0.099 µM

Could you share which IC50 value was measured for O=C([C@H]1CCCO1)N1CCC(Oc2ccc(-c3ccc4cccnc4c3NCCN3CCCC3)cc2)CC1 [Example 334] ?
0.1 to 0.999 µM

Others:
Could you share which IC50 value was measured for O=C(C1CC1)N1CCC(Oc2ccc(-c3cc4ccccc4nc3Cl)cc2)CC1 [Example 17] ?
1 to 10 µM

Could you share which IC50 value was measured for CCc1nccc2cc(-c3ccc(OC4CCN(C(=O)[C@H]5CCCO5)CC4)cc3)ccc12 [Example 438, HCl] ?
0.001 to 0.099 µM

Could you share which IC50 value was measured for CCC(=O)N1CCC(Oc2ccc(-c3ccc4cccnc4c3Cl)cc2)CC1 [Example 261] ?
0.001 to 0.099 µM

Could you share which IC50 value was measured for O=C(C1CC1)N1CCC(Oc2ccc(-c3cccc(Oc4ccccc4)c3)cc2)CC1 [Example 511] ?
1 to 10 µM

Could you share which IC50 value was measured for Cc1c(-c2ccc(OC3CCN(C(=O)C4(C#N)CC4)CC3)cc2)ccc2cccnc12 [Example 319] ?
1 to 10 µM

Could you share which IC50 value was measured for Cc1ccc2ccc(-c3ccc(OC4CCN(C(=O)C5CCC5)CC4)cc3)c(F)c2n1 [Example 27] ?
1 to 10 µM

Could you share which IC50 value was measured for COc1cc(OC2CCN(C(=O)C(C)C)CC2)ccc1-c1cnc2ccccc2c1 [Example 210] ?
1 to 10 µM

Could you share which IC50 value was measured for CC(C)C(=O)N1CCC(Oc2ccc(-c3cnc4ccccc4c3)c(Cl)c2)CC1 [Example 204] ?
0.1 to 0.999 µM

Could you share which IC50 value was measured for COc1cc2ncc(-c3ccc(OC4CCN(C(=O)[C@H]5CCCO5)CC4)cc3)cc2cc1Cl [Example 449] ?
1 to 10 µM

Could you share which IC50 value was measured for COc1cc(-c2ccc(OC3CCN(C(=O)C4CCC4)CC3)cc2)cn2nccc12 [Example 412, HCl] ?
0.001 to 0.099 µM

Could you share which IC50 value was measured for CC(C)C(=O)N1CC(Oc2ccc(-c3cnc4ccccc4c3)cc2)C1 [Example 339] ?
1 to 10 µM

Could you share which IC50 value was measured for Cc1c(-c2ccc(O[C@@H]3C[C@H]4CC[C@@H](C3)N4C(=O)[C@H]3CCCO3)cc2)ccc2cccnc12 [Example 360, HCl] ?
0.1 to 0.999 µM

Could you share which IC50 value was measured for CCC(=O)N1CCC(Oc2ccc(-c3ccc4nccn4c3)cc2)CC1 [Example 256, TFA salt] ?
0.1 to 0.999 µM

Could you share which IC50 value was measured for O=C1OCCN1C(=O)N1CCC(Oc2ccc(-c3cnc4ccccc4c3)cc2)CC1 [Example 241] ?
1 to 10 µM

Could you share which IC50 value was measured for O=C(C1CC1)N1CCC(Oc2ccc(-c3ccnc(Nc4ccccc4)c3)cc2)CC1 [Example 405] ?
1 to 10 µM

Could you share which IC50 value was measured for CCC(=O)N1CCC(Oc2ccc(-c3cncc(Oc4ccccc4)c3)cc2)CC1 [Example 397, TFA] ?
1 to 10 µM

Could you share which IC50 value was measured for CCC(=O)N1CCC(Oc2ccc(-c3ccc4cccnc4c3OCCCN3CCCC3)cc2)CC1 [Example 175, HCl] ?
1 to 10 µM

Could you share which IC50 value was measured for CC(C)C(=O)N1CCC(Oc2ccc(-c3ccc(-c4ccccc4)nc3)cc2)CC1 [Example 379] ?
1 to 10 µM

Could you share which IC50 value was measured for O=C1CC[C@H](C(=O)N2CCC(Oc3ccc(-c4cnc5ccccc5c4)cc3)CC2)O1 [Example 120, HCl] ?
0.001 to 0.099 µM

Could you share which IC50 value was measured for CC(C)C(=O)N1CCC(Oc2ccc(-c3ccc4ccccc4c3)cc2)CC1 [Example 11] ?
1 to 10 µM
